Experiment: Boiling temperature at pressure P
Details: 69.8 kPa; Liquid; Ebulliometric method (Recirculating still)
readout.label: Boiling temperature at pressure P (°C)

Check out these entries, answers already filled in.
>>> df
      molecule                      readout_label  measurement
0  CCN(CC)CCCO  Boiling temperature at pressure P        169.1
1    CN(C)CCCO  Boiling temperature at pressure P        148.6

[P] OCCN1CCCC1 [1-(2-hydroxyethyl)pyrrolidine]
[Q] O
Incoming: Pick one: P or Q . Which one has the lower reported Boiling temperature at pressure P? Use the label to indicate which entry you chose.
Outgoing: Q

----------
Experiment: Boiling temperature at pressure P
Settings: 19.8 kPa; Liquid; Ebulliometric method (Recirculating still)
readout.label: Boiling temperature at pressure P (°C)

[1] CN(C)CCCO [3-dimethylamino-1-propanol]
[2] O [water]
Incoming: Pick one: 1 or 2 . Which one has the lower reported Boiling temperature at pressure P? Use the label to indicate which entry you chose.
Outgoing: 2
(2: 60 °C, 1: 112.7 °C)

Recorded values, source the NIST ThermoML archive (doi:10.1016/j.jct.2019.06.017).
